target: Histone deacetylase; test: Inhibition of HDAC in human CAL27 cells using Boc-Lys(epsilon-Ac)-AMC as substrate preincubated for 18 hrs followed by substrate addition and further incubation for 3 hrs by microplate reader based fluorescence assay; format: cell-based
reported_endpoint: IC50

Solved cases (8 shown):
{"columns": ["input_smiles", "IC50"],
 "data": [
  ["CCCCOc1ccc(C(=O)NOCc2ccc(/C=C/C(=O)NO)cc2)cc1", "3 µM"],
  ["O=C(/C=C/c1ccc(CONC(=O)c2ccc3ccccc3c2)cc1)NO", "2.83 µM"],
  ["O=C(/C=C/c1ccc(CONC(=O)c2ccc3ccccc3n2)cc1)NO", "0.27 µM"],
  ["O=C(/C=C/c1ccc(CONC(=O)c2ccccc2)cc1)NO", "1.16 µM"],
  ["O=C(/C=C/c1ccc(CONC(=O)c2nccc3ccccc23)cc1)NO", "4.48 µM"],
  ["COc1cc(C(=O)NOCc2ccc(/C=C/C(=O)NO)cc2)cc(OC)c1OC", "3.14 µM"],
  ["COc1ccc(NC(=O)NOCc2ccc(/C=C/C(=O)NO)cc2)cc1", "0.49 µM"],
  ["Cc1[nH]c2ccccc2c1CC(=O)NOCc1ccc(/C=C/C(=O)NO)cc1", "2.65 µM"]
]}

Return IC50 for the following compound: `O=C(/C=C/c1ccc(CONC(=O)Nc2cccc3ccccc23)cc1)NO`
40.3 µM

Return IC50 for the following compound: `O=C(/C=C/c1ccc(CONC(=O)Nc2ccccc2-c2ccccc2)cc1)NO`
5.65 µM

Return IC50 for the following compound: `CCNC(=O)NOCc1ccc(/C=C/C(=O)NO)cc1`
14.2 µM

* * *

Each entry below carries its recorded pKi.
target: UniProtKB Q9BY41; assay: Inhibition of C-terminal His-fusion tagged/N-terminal Strep-2 tagged recombinant human HDAC8 (1 to 377 residues) expressed in insect cells using Boc-Lys(TFa)-AMC as substrate preincubated for 5 mins followed by substrate addition and further incubation for 90 mins measured after 15 mins by microplate reader based fluorescence assay
Sequence (Q9BY41 whole entry, the tested form may be a part): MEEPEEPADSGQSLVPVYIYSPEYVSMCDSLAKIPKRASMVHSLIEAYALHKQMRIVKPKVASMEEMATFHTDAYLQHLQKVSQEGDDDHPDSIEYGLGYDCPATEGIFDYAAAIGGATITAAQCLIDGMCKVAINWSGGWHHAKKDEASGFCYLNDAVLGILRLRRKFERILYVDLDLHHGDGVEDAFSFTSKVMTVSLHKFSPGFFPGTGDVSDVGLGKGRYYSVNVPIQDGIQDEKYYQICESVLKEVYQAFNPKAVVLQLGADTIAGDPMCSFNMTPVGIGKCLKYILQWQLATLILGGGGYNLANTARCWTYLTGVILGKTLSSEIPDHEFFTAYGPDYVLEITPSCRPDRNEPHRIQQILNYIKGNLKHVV
// scale note: pKi = -log10(conc_M); give the bare number

{"columns": ["input_smiles", "pKi"],
 "data": [
  ["COc1ccc(NC(=O)NOCc2ccc(/C=C/C(=O)NO)cc2)cc1", 5.38]
]}

Let us examine a further case.
Return pKi for the following compound: `O=C(/C=C/c1ccc(CONC(=O)c2ccc3ccccc3n2)cc1)NO`
5.33

* * *

target: UniProt P56524; experiment: Inhibition of C-terminal His-tagged/N-terminal GST-tagged recombinant human HDAC4 (627 to 1084 residues) expressed in Baculovirus infected insect cells using Boc-Lys(TFa)-AMC as substrate preincubated for 5 mins followed by substrate addition and further incubation for 90 mins measured after 15 mins by microplate reader based fluorescence assay
Sequence (P56524 whole entry, the tested form may be a part): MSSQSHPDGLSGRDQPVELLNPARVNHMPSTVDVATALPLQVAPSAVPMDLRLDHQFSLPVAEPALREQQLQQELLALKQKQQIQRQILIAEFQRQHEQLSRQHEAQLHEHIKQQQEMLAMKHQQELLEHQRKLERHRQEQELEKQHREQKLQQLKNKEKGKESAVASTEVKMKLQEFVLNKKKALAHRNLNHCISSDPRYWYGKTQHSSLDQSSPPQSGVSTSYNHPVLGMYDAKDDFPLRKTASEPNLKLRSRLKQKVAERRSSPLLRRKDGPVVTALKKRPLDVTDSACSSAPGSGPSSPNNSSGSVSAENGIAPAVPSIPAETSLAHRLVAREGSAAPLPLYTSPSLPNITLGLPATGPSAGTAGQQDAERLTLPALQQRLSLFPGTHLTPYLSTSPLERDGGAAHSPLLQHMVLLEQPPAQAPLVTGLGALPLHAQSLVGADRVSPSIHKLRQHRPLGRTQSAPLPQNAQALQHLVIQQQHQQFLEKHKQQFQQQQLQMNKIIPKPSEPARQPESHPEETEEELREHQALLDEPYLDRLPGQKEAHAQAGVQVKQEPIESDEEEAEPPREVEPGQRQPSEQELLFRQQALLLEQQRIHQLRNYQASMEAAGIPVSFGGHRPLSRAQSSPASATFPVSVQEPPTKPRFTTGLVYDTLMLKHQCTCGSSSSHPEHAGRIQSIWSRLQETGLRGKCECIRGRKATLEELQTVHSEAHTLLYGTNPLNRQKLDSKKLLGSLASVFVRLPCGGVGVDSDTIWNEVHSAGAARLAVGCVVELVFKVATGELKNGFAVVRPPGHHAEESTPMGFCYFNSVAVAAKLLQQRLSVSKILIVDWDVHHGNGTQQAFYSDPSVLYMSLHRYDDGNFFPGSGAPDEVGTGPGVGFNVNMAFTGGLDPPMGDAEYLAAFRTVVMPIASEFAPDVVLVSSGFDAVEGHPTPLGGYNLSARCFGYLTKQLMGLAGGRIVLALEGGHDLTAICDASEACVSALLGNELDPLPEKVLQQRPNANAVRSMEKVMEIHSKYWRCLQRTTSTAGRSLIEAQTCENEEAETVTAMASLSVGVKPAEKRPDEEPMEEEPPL
Each entry below carries its recorded Ki.
Supply the numeric figure in µM, leaving out any unit text.

{"columns": ["input_smiles", "measurement_target", "reported_endpoint", "value_measured"],
 "data": [
  ["COc1ccc(NC(=O)NOCc2ccc(/C=C/C(=O)NO)cc2)cc1", "UniProt P56524", "Ki", 25.2]
]}

Determine reported Ki for `O=C(/C=C/c1ccc(CONC(=O)c2ccc3ccccc3n2)cc1)NO` ; test system: UniProt P56524.
9.54

* * *

target: Histone deacetylase; assay: Inhibition of HDAC in human A2780 cells using Boc-Lys(epsilon-Ac)-AMC as substrate preincubated for 18 hrs followed by substrate addition and further incubation for 3 hrs by microplate reader based fluorescence assay; format: cell-based
Each entry below carries its recorded IC50.
Supply the numeric figure in µM, leaving out any unit text.

Solved cases (8 shown):
{"columns": ["input_smiles", "measurement_target", "value_unit", "IC50"],
 "data": [
  ["Cc1cc(C)cc(NC(=O)NOCc2ccc(/C=C/C(=O)NO)cc2)c1", "Histone deacetylase", "µM", 1.54],
  ["CCCCOc1ccc(C(=O)NOCc2ccc(/C=C/C(=O)NO)cc2)cc1", "Histone deacetylase", "µM", 7.6],
  ["O=C(/C=C/c1ccc(CONC(=O)Nc2ccccc2)cc1)NO", "Histone deacetylase", "µM", 190],
  ["O=C(/C=C/c1ccc(CONC(=O)Nc2cccc3ccccc23)cc1)NO", "Histone deacetylase", "µM", 43.2],
  ["CC(C(=O)NOCc1ccc(/C=C/C(=O)NO)cc1)(c1ccccc1)c1ccccc1", "Histone deacetylase", "µM", 3.34],
  ["Cc1cc(C)cc(C(=O)NOCc2ccc(/C=C/C(=O)NO)cc2)c1", "Histone deacetylase", "µM", 0.9],
  ["COc1cc(C(=O)NOCc2ccc(/C=C/C(=O)NO)cc2)cc(OC)c1OC", "Histone deacetylase", "µM", 6.85],
  ["O=C(/C=C/c1ccc(CONC(=O)c2ccc3ccccc3n2)cc1)NO", "Histone deacetylase", "µM", 1.54]
]}

Return IC50 for the following compound: `O=C(/C=C/c1ccc(CONC(=O)Nc2ccccc2-c2ccccc2)cc1)NO`
4.03

Return IC50 for the following compound: `O=C(/C=C/c1ccc(CONC(=O)c2csc(-c3ccccc3)n2)cc1)NO`
19.2

* * *

target: UniProtKB Q9UBN7; test: Inhibition of N-terminal GST-tagged recombinant human HDAC6 (1 to 1215 residues) expressed in Baculovirus infected insect cells using Boc-Lys(Ac)-AMC as substrate preincubated for 5 mins followed by substrate addition and further incubation for 90 mins measured after 15 mins by microplate reader based fluorescence assay
Sequence (Q9UBN7 whole entry, the tested form may be a part): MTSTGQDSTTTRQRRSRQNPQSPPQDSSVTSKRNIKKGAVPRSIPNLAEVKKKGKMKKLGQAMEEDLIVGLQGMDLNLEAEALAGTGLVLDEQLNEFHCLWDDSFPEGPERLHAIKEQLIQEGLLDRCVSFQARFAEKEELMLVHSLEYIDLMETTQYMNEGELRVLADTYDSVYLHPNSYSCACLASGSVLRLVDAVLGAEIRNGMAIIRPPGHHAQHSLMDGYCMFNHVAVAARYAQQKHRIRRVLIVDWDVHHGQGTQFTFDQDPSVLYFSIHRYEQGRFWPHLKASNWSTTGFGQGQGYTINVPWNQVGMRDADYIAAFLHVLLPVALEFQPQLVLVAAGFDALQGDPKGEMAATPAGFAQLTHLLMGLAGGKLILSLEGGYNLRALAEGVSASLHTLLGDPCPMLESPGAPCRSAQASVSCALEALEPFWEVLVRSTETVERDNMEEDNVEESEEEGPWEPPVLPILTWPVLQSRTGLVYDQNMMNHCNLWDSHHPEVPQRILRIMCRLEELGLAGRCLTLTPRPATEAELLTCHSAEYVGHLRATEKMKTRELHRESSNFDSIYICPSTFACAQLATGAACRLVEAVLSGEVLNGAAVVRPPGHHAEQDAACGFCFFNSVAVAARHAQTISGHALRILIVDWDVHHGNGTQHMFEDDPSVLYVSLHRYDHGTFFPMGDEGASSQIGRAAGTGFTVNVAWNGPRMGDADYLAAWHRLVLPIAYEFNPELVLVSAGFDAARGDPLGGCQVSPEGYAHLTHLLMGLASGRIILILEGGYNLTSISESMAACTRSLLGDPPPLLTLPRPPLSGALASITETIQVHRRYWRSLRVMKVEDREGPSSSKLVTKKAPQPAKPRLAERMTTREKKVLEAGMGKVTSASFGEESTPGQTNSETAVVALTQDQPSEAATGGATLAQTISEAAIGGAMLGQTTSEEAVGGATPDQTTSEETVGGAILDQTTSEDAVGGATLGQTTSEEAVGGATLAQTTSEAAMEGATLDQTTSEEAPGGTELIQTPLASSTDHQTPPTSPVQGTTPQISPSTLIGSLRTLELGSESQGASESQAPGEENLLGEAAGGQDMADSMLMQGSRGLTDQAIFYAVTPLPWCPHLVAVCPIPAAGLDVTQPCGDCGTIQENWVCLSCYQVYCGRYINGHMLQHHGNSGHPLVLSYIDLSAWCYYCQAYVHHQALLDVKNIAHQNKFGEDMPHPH
reported_endpoint: Ki

{"columns": ["input_smiles", "reported_endpoint", "value_measured"],
 "data": [
  ["COc1ccc(NC(=O)NOCc2ccc(/C=C/C(=O)NO)cc2)cc1", "Ki", "120 nM"]
]}

Return Ki for the following compound: `O=C(/C=C/c1ccc(CONC(=O)c2ccc3ccccc3n2)cc1)NO`
100 nM

* * *

biological target: Histone deacetylase; experiment: Inhibition of HDAC in human A2780 cells using Boc-Lys(epsilon-Ac)-AMC as substrate preincubated for 18 hrs followed by substrate addition and further incubation for 3 hrs by microplate reader based fluorescence assay; assay type: cell-based
reported_endpoint: log10 IC50 (log10 of the value in nM)
Scale: log10; quantity: IC50; unit before log: nM

Solved cases (2 shown):
{"columns": ["input_smiles", "measurement_target", "value_measured"],
 "data": [
  ["COc1ccc(NC(=O)NOCc2ccc(/C=C/C(=O)NO)cc2)cc1", "Histone deacetylase", 2.76],
  ["O=C(/C=C/c1ccc(CONC(=O)c2ccc3ccccc3c2)cc1)NO", "Histone deacetylase", 3.28]
]}

Return log10 IC50 for the following molecule: `O=C(/C=C/c1ccc(CONC(=O)c2nccc3ccccc23)cc1)NO`
3.30

Return log10 IC50 for the following molecule: `O=C(/C=C/c1ccc(CONC(=O)c2ccccc2)cc1)NO`
2.97

Return log10 IC50 for the following molecule: `Cc1cc(C)c(NC(=O)NOCc2ccc(/C=C/C(=O)NO)cc2)c(C)c1`
3.36

Return log10 IC50 for the following molecule: `Cc1[nH]c2ccccc2c1CC(=O)NOCc1ccc(/C=C/C(=O)NO)cc1`
3.05

Return log10 IC50 for the following molecule: `CCNC(=O)NOCc1ccc(/C=C/C(=O)NO)cc1`
3.84

* * *

target: Histone deacetylase; test: Inhibition of HDAC in human CAL27 cells using Boc-Lys(epsilon-Ac)-AMC as substrate preincubated for 18 hrs followed by substrate addition and further incubation for 3 hrs by microplate reader based fluorescence assay; assay type: cell-based
One threshold, 10 µM, splits the recorded IC50 values: lower ones are rule met, equal or higher ones are rule not met.

Examples from the recorded data:
{"columns": ["input_smiles", "measurement_target", "category"],
 "data": [
  ["Cc1cc(C)cc(C(=O)NOCc2ccc(/C=C/C(=O)NO)cc2)c1", "Histone deacetylase", "rule met"],
  ["O=C(/C=C/c1ccc(CONC(=O)c2csc(-c3ccccc3)n2)cc1)NO", "Histone deacetylase", "rule not met"],
  ["Cc1cc(C)c(NC(=O)NOCc2ccc(/C=C/C(=O)NO)cc2)c(C)c1", "Histone deacetylase", "rule met"]
]}

# strict comparison: is reported IC50 < 10 µM? input = `CC(C(=O)NOCc1ccc(/C=C/C(=O)NO)cc1)(c1ccccc1)c1ccccc1`
rule met

# strict comparison: is reported IC50 < 10 µM? input = `O=C(/C=C/c1ccc(CONC(=O)Nc2ccccc2)cc1)NO`
rule not met

# strict comparison: is reported IC50 < 10 µM? input = `Cc1cc(C)cc(NC(=O)NOCc2ccc(/C=C/C(=O)NO)cc2)c1`
rule met
